Give NOAEL at 7 days for every item shown.
experiment: in vivo; design: species or system beagle dogs; settings: both sexes, beagle, dog, delivered as combination antibiotic aerosol, 7-day treatment

compound: NCC[C@H](O)C(=O)N[C@@H]1C[C@H](N)[C@@H](O[C@H]2O[C@H](CN)[C@@H](O)[C@H](O)[C@H]2O)[C@H](O)[C@H]1O[C@H]1O[C@H](CO)[C@@H](O)[C@H](N)[C@H]1O [Amikacin, amikacin]
NOAEL at 7 days: 117 mg/kg/day

Please look at the following compound next.
Exercise: For C[C@@H]1O[C@@H]1P(=O)(O)O [Fosfomycin, fosfomycin] , write its NOAEL at 7 days.
Key: 47.5 mg/kg/day
